Target: T1, cSNK:BSA conjugate (bovine, head-to-tail cyclized; conjugated to BSA carrier)
T1 construct: also called BSA-cSNK
T1 sequence (P02769 25-607 limits assumed): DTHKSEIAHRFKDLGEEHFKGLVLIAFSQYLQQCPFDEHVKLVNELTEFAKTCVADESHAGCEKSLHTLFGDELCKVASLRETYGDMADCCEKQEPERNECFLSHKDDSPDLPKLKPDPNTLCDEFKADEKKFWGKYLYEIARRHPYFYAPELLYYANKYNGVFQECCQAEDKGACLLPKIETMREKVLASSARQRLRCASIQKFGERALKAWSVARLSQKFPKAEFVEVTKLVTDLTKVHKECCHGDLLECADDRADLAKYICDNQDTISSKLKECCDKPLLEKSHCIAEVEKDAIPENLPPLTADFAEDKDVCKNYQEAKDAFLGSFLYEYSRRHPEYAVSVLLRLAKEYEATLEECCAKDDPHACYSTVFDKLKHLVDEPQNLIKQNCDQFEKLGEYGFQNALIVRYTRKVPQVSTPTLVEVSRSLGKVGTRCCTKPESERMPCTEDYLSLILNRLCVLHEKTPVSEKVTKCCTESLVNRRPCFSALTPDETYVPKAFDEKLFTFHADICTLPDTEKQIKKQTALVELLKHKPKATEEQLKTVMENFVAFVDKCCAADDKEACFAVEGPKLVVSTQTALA
Experiment: BLI 2:1 fit, site 2 (KD2); 6.25 nM row
Decide using Kd alone. Strictly below 2 nM: Satisfied. Equal to or above 2 nM: Not satisfied.

Q: Threshold test, Kd < 2 nM: rehu5E3-IgG4 (antibody, V domains shown, human IgG4/kappa; also called IgG4 rehu version) VH: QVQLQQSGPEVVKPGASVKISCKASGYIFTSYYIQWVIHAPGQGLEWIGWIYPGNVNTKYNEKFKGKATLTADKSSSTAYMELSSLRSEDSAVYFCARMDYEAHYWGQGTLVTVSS VL: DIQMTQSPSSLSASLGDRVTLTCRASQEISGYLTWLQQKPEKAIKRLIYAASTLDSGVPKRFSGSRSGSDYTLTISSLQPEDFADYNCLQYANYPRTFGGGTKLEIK
Result: Not satisfied

Please turn your attention to the following entry.
Q: Threshold test, Kd < 2 nM: hu5E3-IgG4 (antibody, V domains shown, human IgG4/kappa; also called humanized 5E3 IgG4) VH: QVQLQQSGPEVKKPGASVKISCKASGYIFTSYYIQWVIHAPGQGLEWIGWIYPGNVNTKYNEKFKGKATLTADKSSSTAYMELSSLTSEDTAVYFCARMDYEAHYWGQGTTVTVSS VL: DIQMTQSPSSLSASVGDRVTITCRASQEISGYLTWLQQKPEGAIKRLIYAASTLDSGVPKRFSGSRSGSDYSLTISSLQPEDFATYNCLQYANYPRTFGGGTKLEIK
Result: Not satisfied
